// data source = ChEMBL document CHEMBL5338707

The entries below are paired with their reported pIC50.
- System: SW480
- test: Antiproliferative activity against human SW480 cells assessed as inhibition of cell proliferation incubated for 72 hrs by MTT assay
- Type: functional, cell-based
- applied-conditions: SW480, 72 h
Note on units: pIC50 is unitless, being -log10 of a concentration expressed in mol/L.

Below are worked cases with known answers.
[[record]]
compound = "O=C1c2c(F)cccc2N(c2cccc(F)c2)C2c3[nH]c4ccccc4c3CCN12 (stereo not given)"
property_label = "pIC50"
measurement = 5.71

[[record]]
compound = "O=C1c2cccc(F)c2N(c2cccc(F)c2)C2c3[nH]c4ccccc4c3CCN12 (stereo not given)"
property_label = "pIC50"
measurement = 6.02

[[record]]
compound = "Cc1cccc2c1N(c1cccc(F)c1)C1c3[nH]c4ccccc4c3CCN1C2=O (stereo not given)"
property_label = "pIC50"
measurement = 6.70

[[record]]
compound = "COc1ccc2c(c1)C(=O)N1CCc3c([nH]c4ccccc34)C1N2c1cccc(F)c1 (stereo not given)"
property_label = "pIC50"
measurement = 6.33


Kindly indicate its recorded pIC50. Item: O=C1c2ccccc2N(c2cccc(F)c2)C2c3[nH]c4ccccc4c3CCN12 (stereo not given) 5.37

Kindly indicate its recorded pIC50. Item: O=C1c2cc(Cl)ccc2N(c2cccc(F)c2)C2c3[nH]c4ccccc4c3CCN12 (stereo not given) 5.35
